In this section we review reported GI50 values for a set of molecules.
Test system: HCT-116
Experiment: NCI tumour cell line growth inhibition, 48 h
Active and inactive are the calls of the source. Rule as the data show it: active = GI50 up to about 1.1 µM and inactive = higher.

Some molecules with recorded GI50:
N#Cc1c(-c2ccccc2)cc(Nc2cccc(C(F)(F)F)c2)n2c1nc1ccccc12    0.471 µM (active)
NCCNCCCCCCNC(=O)c1cccc2cc3ccccc3nc12    2.15 µM (inactive)
O=C(O)C1[C@@H](C(=O)O)C1(Br)CBr (stereo partly drawn)    > 100 µM (inactive)
CCN(CC)CCn1ncc2c3c(=O)c4cccnc4n(CCN(CC)CC)c3ccc21    3.54 µM (inactive)
NC(=S)N/N=C1\NC(=O)/C(=C/c2ccc3c(c2)OCO3)S1    29.1 µM (inactive)
COC(=O)C1(C)CC2C(C)(CCC3(C)C4=CC=C5C(=CC(=O)C(O)=C5C)C4(C)CCC23C)CC1O (stereo not drawn)    0.564 µM (active)
CCCC(=O)Nc1cc(C(=O)N2C[C@H]3C[C@@]34C2=CC(=O)c2[nH]cc(C)c24)n(COC)c1    0.182 µM (active)
O=c1c2c([nH]c3cc4c(cc13)OCO4)-c1ccccc1C2    15.6 µM (inactive)
O=C1N(CN2CCOCC2)CN(CN2CCOCC2)C(=O)N1Cc1ccccc1    22.8 µM (inactive)
BrCc1ccc(CBr)c2c1-c1c(CBr)ccc3ccc(CBr)c-2c13    98.6 µM (inactive)

Let us examine a further case.
GI50 recorded for this molecule, `O=C(NNCc1ccco1)c1cc2ccccc2[nH]1` , is > 86.1 µM (inactive)

====

Tested on: IGROV-1
Assay: NCI tumour cell line growth inhibition, 48 h
Activity calls are given as the source filed them. No stated cut-off is given here; in the data, active = GI50 up to about 1.1 µM and inactive = higher.
In this section we review reported GI50 values for a set of molecules.

// returns GI50 for CCCCCCCCCCCCCCCCCC(=O)OCC1OC(OC)C(NC(=O)N(CCCl)N=O)C(O)C1O (configuration not stated) with IGROV-1; value = 32.5 µM (inactive)

====

Test system: NCI/ADR-RES
Test: NCI tumour cell line growth inhibition, 48 h
Activity calls are given as the source filed them. Rule as the data show it: active = GI50 up to about 1.1 µM and inactive = higher.
In this section we review reported GI50 values for a set of molecules.

GI50 recorded for this molecule, `N#C/C(C(=O)Nc1ccc(Cl)cc1)=C(/N)N1CCOCC1` , is > 100 µM (inactive)

====

Tested on: SF-539
Assay: NCI tumour cell line growth inhibition, 48 h
Calls of active or inactive are those of the source. Cut-off read from the data, not from the text of the source: active = GI50 up to about 1.1 µM and inactive = higher.
Bench note: report the call from active, inactive

O=[N+]([O-])c1cccc2nccc(NCCCO)c12    inactive
CC(=O)OCC1OC(O[C@H]2C=C[C@@H](C(=O)OCc3ccccc3)n3c(=O)n(-c4ccccc4)c(=O)n32)C(OC(C)=O)C(OC(C)=O)C1OC(C)=O (stereo partly drawn)    inactive

How did this test come out for `Cc1cc(S(=O)(=O)N/C(=C(\C#N)C(=O)c2ccccc2)[n+]2ccc(N(C)C)cc2)c([S-])cc1Cl` ?
inactive

How did this test come out for `O=C1CC(=O)NC(NNS(=O)(=O)c2ccccc2)=N1` ?
inactive

How did this test come out for `COc1ccccc1Cn1c2c(c3cc(O)ccc31)C(=O)c1ccccc1C2=O` ?
inactive

How did this test come out for `O=C(Nc1ccccc1C(=O)NCc1ccccc1)/C(=C/c1ccccc1)NC(=O)c1ccccc1` ?
inactive

How did this test come out for `CCCC(=O)Nc1cc(C(=O)N2C[C@H]3C[C@@]34C2=CC(=O)c2[nH]cc(C)c24)n(COC)c1` ?
active

How did this test come out for `COc1ccc2nc3ccc(OC)cc3c(SCCCl)c2c1` ?
inactive

How did this test come out for CCOC(=O)C1S/C(=N\c2ccc(C)c(C)c2)N=C1C (stereo not drawn) ?
inactive

How did this test come out for `CC(=O)c1ccc(NC(=O)/C(CC(=O)c2sc(-c3cccnc3)nc2C)=N/NC(N)=O)cc1` ?
inactive

How did this test come out for `O=C(CSc1nc2ccc([N+](=O)[O-])cc2s1)c1ccc2ccccc2c1` ?
inactive
